test: qHTS Assay for Lipid Storage Modulators in Drosophila S3 Cells; settings: BODIPY lipid droplet fluorescence, 18-24 h, cells fed with added oleic acid; series mostly up to 46.1 µM; further: potency means the concentration at half of the fitted maximal effect
Hit rate of the full screen: of about 320,000 compounds, about 2,100 (0.66%) were called active. Not shown: some 53% with an inconclusive outcome. Many of the other results were omitted from the sample, so actives are more common in it than they were.

| Compound | Potency |
| --- | --- |
| O=C(Nc1ccccc1)NC1CCN(Cc2c(F)cccc2Cl)CC1 | inactive |
| CCOCCCNC(=O)C1CCCN(S(=O)(=O)c2cccc3nsnc23)C1 (configuration not stated) | inactive |
| COc1cc2c(cc1OC)CN(c1ccc(-c3ccccc3OC)nn1)CC2 | inactive |
| O=C(NCc1cccc(Cl)c1)C1CCC(=O)N(CCN2CCOCC2)C1 (configuration not stated) | inactive |
| COc1ccc(C2CCCN2C(=O)Nc2ccc(Cl)cc2)cc1OC (configuration not stated) | inactive |
| O=S(=O)(c1ccccc1)n1ccc2ccccc21 | inactive |
| Cc1ccc(CSCCNC(=O)CSCc2ccc([N+](=O)[O-])cc2)cc1 | inactive |
| Cc1cccc(CSCCNC(=O)CSCc2ccc([N+](=O)[O-])cc2)c1 | 14.6 µM (active) |
| O=Cc1c(Cl)nc2ccccn12 | inactive |
| O=C(NCc1ccccc1Cl)C1CCC(=O)N(CCCN2CCCC2=O)C1 (configuration not stated) | inactive |
| O=C(O)c1c(Cl)nc2ccccn12 | 4.61 µM (active) |
| O=C(NCc1cccc(Cl)c1)C1CCC(=O)N(CCCN2CCCC2=O)C1 (configuration not stated) | 1.84 µM (active) |

----------
test: qHTS Assay for Lipid Storage Modulators in Drosophila S3 Cells; settings: BODIPY lipid droplet fluorescence, 18-24 h, cells fed with added oleic acid; measured here: cell count max response;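 on cell number change: cells counted by Cell Tracker Red CMTPX staining in the red channel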
The campaign covered roughly 320,000 compounds. About 2,100 (0.66%) were called active. Not shown: some 53% with an inconclusive outcome. This excerpt belongs to a sample that is enriched for actives.

| Molecule | cell number change (%) |
| --- | --- |
| Cc1ccc(N(CC(=O)NC2CCCCC2C)S(=O)(=O)c2c(C)noc2C)cc1 (stereo not given) | 1.18 |
| COc1cc(C(C[N+](=O)[O-])c2c(C)[nH]c3ccccc23)ccc1O (stereo not given) | 20.5 |
| O=C1C2C(C(=O)N1Cc1cccnc1)C1C=CC2C12CC2 (stereo not given) | -2.7 |
| CN(C)C(=O)Cn1cc(S(=O)(=O)Cc2ccccc2)c2ccccc21 | -2.09 |
| O=C(Cc1ccccc1)NN1C(=O)C2C3C=CC([C@@H]2C1=O)C31CC1 (stereo not given in full) | -3.77 |
| CC(C)Oc1cccc(C(=O)C2CCCN(C(=O)c3csnn3)C2)c1 (stereo not given) | 3.1 |
| CCN(CC)C(=O)Cn1cc(S(=O)(=O)Cc2cccc([N+](=O)[O-])c2)c2ccccc21 | 0.298 |
| CC(CNC(=O)CN1C(=O)NC2(CCCCC2C)C1=O)c1ccccc1 (stereo not given) | -0.107 |
| O=C(Cn1cc(S(=O)(=O)Cc2ccccc2)c2ccccc21)N1CCOCC1 | 6.54 |
| COC(=O)CN1C(=O)N/C(=C/c2ccc(OC)cc2)C1=O | -7.72 |

----------
experiment: qHTS Assay for Lipid Storage Modulators in Drosophila S3 Cells; conditions: BODIPY lipid droplet fluorescence, 18-24 h, cells fed with added oleic acid; series mostly up to 46.1 µM
The campaign covered roughly 320,000 compounds. About 2,100 (0.66%) were called active. Roughly 53% stayed inconclusive and do not appear here. Calls follow the shape of the dose curve; as a rule, active = well fitted inhibition curve with a large enough effect in the signal ratio, with a control signal flat (not every such curve was filed as active); inconclusive = small, poorly fitted or top-dose-only effect, or effect the other way, or a change in a side signal; inactive = flat fitted curve, though single readings scatter; the % refers to the signal ratio. The list comes from a sample in which actives are over-represented; it also holds close analogues and randomly drawn compounds.
Classes used: 1 for active, -1 for inactive

| Molecule | Answer label |
| --- | --- |
| C[n+]1ccc(/C=C/c2c[nH]c3ccccc23)cc1 | 1 |
| Cc1ccccc1/C=C/c1cc[n+](C)cc1 | -1 |
| OCC[n+]1ccc(/C=C/c2c[nH]c3ccccc23)cc1 | -1 |
| CC(CNC(=O)CCCn1ncn2c(cc3occc32)c1=O)c1ccccc1 (stereo unspecified) | -1 |
| COC(=O)c1cc(CNC(=O)c2sccc2-c2ccccc2)ccc1OC | -1 |
| CCOc1ccccc1CNC(=O)CCCn1ncn2c(cc3occc32)c1=O | 1 |
| C/C(=N/N=C1/NC(=O)CC(C(=O)Nc2ccccc2)S1)c1cccs1 (stereo unspecified) | -1 |
| CCOc1cc(-c2cc(-c3ccc(C)o3)nc(N)c2C#N)ccc1O | -1 |
| Nc1nc2c(C(=O)N3CCOCC3)nnn2c2ccccc12 | -1 |
| Cc1cnc(C(=O)OCc2c(C)cc(C(C)(C)C)cc2C)cn1 | -1 |
| O=C(CN1CCN(CC(=O)Nc2ccccc2C(F)(F)F)CC1)Nc1ccccc1F | -1 |

// data source = PubChem BioAssay AID2685
